Reference for the values: patent US10869931B2

- Tested on: choroidal neovascularization in BN rats
- assayDetails: Laser-induced choroidal neovascularization in BN rats (FFA)
- Format: in vivo, rat
- conditionNotes: Day 14; 25 μg intravitreally once daily for 1 week (Table 53); total spots 132-138 by table
Where no end group is shown, it is not given here.
metric: leakage Spots #
In your answer, state the number alone without any accompanying words.

Q) Field: leakage Spots # (choroidal neovascularization in BN rats). Entry: mPEG-ALD5k-Arg-Gly-Ala-Asp-Arg-Ala-Gly-Gly-Gly-Gly-Arg-Gly-Asp ({mPEG‑ALD 5 kDa}-RGADRAGGGGRGD) [mPEG-ALD5k-HM-1]
A) 62

Q) Quick check: leakage Spots # on choroidal neovascularization in BN rats, item mPEG2-NHS5k-Arg-Gly-Ala-Asp-Arg-Ala-Gly-Gly-Gly-Gly-Arg-Gly-Asp ({mPEG2‑NHS 5 kDa}-RGADRAGGGGRGD) [mPEG2-NHS5k-HM-1] ?
A) 63

Q) Which leakage Spots # is reported with choroidal neovascularization in BN rats for this entry: mPEG-bALD5k-Arg-Gly-Ala-Asp-Arg-Ala-Gly-Gly-Gly-Gly-Arg-Gly-Asp ({mPEG‑bALD 5 kDa}-RGADRAGGGGRGD) [mPEG-bALD5k-HM-1] ?
A) 65

Q) Enter reported leakage Spots # observed with choroidal neovascularization in BN rats for mPEG-SC5k-Arg-Gly-Ala-Asp-Arg-Ala-Gly-Gly-Gly-Gly-Arg-Gly-Asp ({mPEG‑SC 5 kDa}-RGADRAGGGGRGD) [mPEG-SC5k-HM-1]
A) 65
